- EXPERIMENTAL PROTOCOL: Pharmacokinetic study for DJ001
- Assay type: in vivo, mouse
- COND: C57BL/6, mouse, plasma, subcutaneous, 5 mg/kg, 0.25 Hours; individual mice; read-out: Supplementary Figure 4f: Concentration
- Experimental: PK studies for DJ001 were performed at Cyprotex (Study Number CYP1426-R1) under non-good laboratory practice conditions. […]
ENDPOINT NAME: concentration at 0.25 h
Please don't drop the unit; write it after the number.

[in] Dear colleague, I am looking for the recorded concentration at 0.25 h of the following compound: O=C(/C=C\Nc1cccc([N+](=O)[O-])c1)c1ccccc1
[out] 113 ng/mL

====

- EXPERIMENTAL PROTOCOL: Pharmacokinetic study for DJ001
- Assay type: in vivo, mouse
- COND: C57BL/6, mouse, plasma, subcutaneous, 5 mg/kg, 4 Hours; individual mice; read-out: Supplementary Figure 4f: Concentration
ENDPOINT NAME: concentration at 4 h (ng/mL)
Give bare numbers, in ng/mL.

[in] Quick one: concentration at 4 h of O=C(/C=C\Nc1cccc([N+](=O)[O-])c1)c1ccccc1 ?
[out] 6.5

====

- EXPERIMENTAL PROTOCOL: Pharmacokinetic study for DJ001
- Assay type: in vivo, mouse
- COND: C57BL/6, mouse, plasma, subcutaneous, 5 mg/kg, 2 Hours; individual mice; read-out: Supplementary Figure 4f: Concentration
- Method: PK studies for DJ001 were performed at Cyprotex (Study Number CYP1426-R1) under non-good laboratory practice conditions. […]
ENDPOINT NAME: concentration at 2 h (ng/mL)
One number for each entry, in ng/mL.

[in] Item under review: O=C(/C=C\Nc1cccc([N+](=O)[O-])c1)c1ccccc1 [DJ001] . Reported concentration at 2 h?
[out] 32.9
